Target: Tubulin (Homo sapiens) (UniProt P68371+Q9H4B7+P0DPH7+P68366+Q13509+Q71U36+P04350+Q3ZCM7+P07437+P68363+Q9BQE3+Q6PEY2+Q13885+Q9BVA1+Q9BUF5)
Assay: Inhibition of [3H]Colchicine binding to tubulin (unknown origin) at 5 uM relative to control
Format: protein-complex assay
Outcome: Y for inhibition of at least 60%; N for anything lower.

>>> df
                                    compound  label
 0  COc1ccc(Cn2cc3c(c2-c2cc(OC)c(OC)c(OC)c2)CCc2cnoc2-3)cc1      N
 1  COc1ccc(Cn2cc3c(c2-c2ccc(OC)cc2)CCc2cnoc2-3)cc1      N
 2  COc1ccc(Cn2cc3c(c2-c2cc(OC)c(OC)c(OC)c2)CCc2c(CN4CCCC4)noc2-3)cc1      N
 3    COc1cc(Cn2cc3c(c2)-c2oncc2CC3)cc(OC)c1      Y
 4  COc1ccc(Cn2cc3c(c2-c2ccccc2)CCc2cnoc2-3)cc1      Y
 5  COc1ccc(Cn2cc3c(c2-c2ccccc2)CCc2cnoc2-3)cc1[N+](=O)[O-]      N
 6  COc1ccc(Cn2cc3c(c2-c2cc(OC)c(OC)c(OC)c2)CCc2cnoc2-3)cc1N      N
 7  c1ccc(Cn2cc3c(c2-c2ccccc2)CCc2cnoc2-3)cc1      N
 8  COc1ccc(Cn2cc3c(c2-c2ccccc2)CCc2cnoc2-3)cc1N      Y
 9  COc1ccc(Cn2cc3c(c2-c2ccccc2)CCc2cnoc2-3)cc1OC      N
10  COc1cc(Cn2cc3c(c2)-c2oncc2CC3)cc(OC)c1OC      Y
11        COc1cccc(Cn2cc3c(c2)-c2oncc2CC3)c1      Y
12  COc1ccc(Cn2cc3c(c2-c2cc(OC)c(OC)c(OC)c2)CCc2c(CN4CCOCC4)noc2-3)cc1      N

###

# pIC50 per record follows
Target: Tubulin
Assay: Inhibition of tubulin assembly (unknown origin)
pIC50: −log10 of the molar value.
EXPERIMENTAL_READOUT: pIC50

                                    compound  system_name  experimental_readout  test_value
 0  CCOC(=O)c1c2c(cn1Cc1ccc(OC)cc1)-c1oncc1CC2      Tubulin                 pIC50        5.10
 1        COc1cccc(Cn2cc3c(c2)-c2oncc2CC3)c1      Tubulin                 pIC50        5.28
 2  COc1ccc(Cn2cc3c(c2-c2ccccc2)CCc2cnoc2-3)cc1[N+](=O)[O-]      Tubulin                 pIC50        5.82
 3  COc1ccc(Cn2cc3c(c2-c2ccccc2)CCc2cnoc2-3)cc1      Tubulin                 pIC50        5.68
 4  COc1ccc(Cn2cc3c(c2-c2ccccc2)CCc2cnoc2-3)cc1OC      Tubulin                 pIC50        5.47
 5    COc1cc(Cn2cc3c(c2)-c2oncc2CC3)cc(OC)c1      Tubulin                 pIC50        5.55
 6  c1ccc(Cn2cc3c(c2-c2ccccc2)CCc2cnoc2-3)cc1      Tubulin                 pIC50        5.34
 7  COc1ccc(Cn2cc3c(c2-c2ccccc2)CCc2cnoc2-3)cc1N      Tubulin                 pIC50        5.77
 8  COc1ccc(Cn2cc3c(c2-c2cc(OC)c(OC)c(OC)c2)CCc2c(CN4CCOCC4)noc2-3)cc1      Tubulin                 pIC50        6.00
 9  COc1ccc(Cn2cc3c(c2-c2ccc(OC)cc2)CCc2cnoc2-3)cc1      Tubulin                 pIC50        5.70
10  COc1cc(Cn2cc3c(c2)-c2oncc2CC3)cc(OC)c1OC      Tubulin                 pIC50        5.64
11  COc1ccc(Cn2cc3c(c2-c2ccccc2)CCc2c(CN4CCCC4)noc2-3)cc1      Tubulin                 pIC50        4.92
12  COc1ccc(Cn2cc3c(c2-c2cc(OC)c(OC)c(OC)c2)CCc2cnoc2-3)cc1N      Tubulin                 pIC50        5.77
13  COc1ccc(Cn2cc3c(c2-c2cc(OC)c(OC)c(OC)c2)CCc2c(CN4CCCC4)noc2-3)cc1      Tubulin                 pIC50        5.55
14  COc1ccc(Cn2cc3c(c2-c2cc(OC)c(OC)c(OC)c2)CCc2cnoc2-3)cc1      Tubulin                 pIC50        5.49
